Listing of entries alongside the reported IC50.
target-entity: androgen receptor (Homo sapiens, UniProt P10275, Q868H)
Construct: a human breast tumor cell line expressing androgen receptor; endogenous in cells; host or cells: MDA-MB453-MMTV clone 54-19 (only the MMTV-luciferase reporter was transfected)
run-description: AR antagonist cell assay (MDA-MB453-MMTV clone 54-19, luciferase reporter)
Format: cell-based
test-context: AR Cell IC50, MDA-MB453-MMTV clone 54-19 cells, 100 pM DHT, 17 hr; mean of multiple tests
Returns: string containing the number followed by the unit.

Worked examples, 5 molecules total:
molecule | target-entity | IC50
N#Cc1ccc(OC2CCCC(O)C2)cc1Cl (stereo not drawn) [Example 26] | androgen receptor (Homo sapiens, UniProt P10275, Q868H) | 0.046 µM
CC1(O)C[C@@H]2C[C@H]1CC2Oc1ccc(C#N)c(C(F)(F)F)c1 (stereo in doubt) [Example 1] | androgen receptor (Homo sapiens, UniProt P10275, Q868H) | 0.08 µM
CO[C@H]1CCCC[C@@H]1Oc1ccc(C#N)c(C(F)(F)F)c1 (relative stereo) [Example 70] | androgen receptor (Homo sapiens, UniProt P10275, Q868H) | 0.01 µM
N#Cc1ccc(O[C@@H]2CCCCC2C#N)cc1C(F)(F)F (stereo in doubt) [Example 14] | androgen receptor (Homo sapiens, UniProt P10275, Q868H) | 0.013 µM
N#Cc1ccc(OC2CCCCC2)cc1C(F)(F)F [Example 11] | androgen receptor (Homo sapiens, UniProt P10275, Q868H) | 0.0005 µM

Query: Could you tell me which IC50 is on file for N#Cc1ccc(O[C@@H]2CCCC[C@H]2C#N)cc1C(F)(F)F (single isomer, unassigned) [Example 72] ?
Reply: 0.012 µM

Query: Could you tell me which IC50 is on file for C=CCO[C@H]1CCCC[C@@H]1Oc1ccc(C#N)c(C(F)(F)F)c1 [Example 71] ?
Reply: 0.023 µM

Query: Could you tell me which IC50 is on file for N#Cc1ccc(O[C@H]2CC3CC[C@@H]2C3)cc1Cl (stereo in doubt) [Example 24] ?
Reply: 0.015 µM

Query: Could you tell me which IC50 is on file for C[C@H]1CC[C@@H](Oc2ccc(C#N)c(Cl)c2)CC1 [Example 31] ?
Reply: 0.066 µM

====

target-entity: hAR (Homo sapiens)
Construct: made in house; host or cells: baculovirus/Sf9 insect cells
run-description: Competitive binding analysis on baculovirus/Sf9 generated hAR extracts with 3H-DHT tracer
test-context: hAR extract, 1 nM 3H-DHT, one hour at 4° C.; mean of multiple tests; read-out: AR Binding IC50
Category | rule: reported IC50 within range, see bottom = under 200 nM, middle = from 200 nM up to 300 nM, top = 300 nM and over

Example entries begin here.
compound | target-entity | label-class
N#Cc1ccc(OC2CCCCCC2)c(Cl)c1 | hAR (Homo sapiens) | middle
C[C@@H]1CCC[C@H](Oc2ccc(C#N)cc2Cl)C1 | hAR (Homo sapiens) | top
C[C@H]1CCC[C@@H]1Oc1ccc(C#N)c(C(F)(F)F)c1 [Example 17] | hAR (Homo sapiens) | middle
C=C(C)[C@H]1CC[C@H](C)[C@@H](Oc2ccc(C#N)c(C(F)(F)F)c2)C1 | hAR (Homo sapiens) | bottom
C[C@H]1CC[C@H](Oc2ccc(C#N)cc2Cl)CC1 | hAR (Homo sapiens) | top

Query: Pick a category. Item: C=CCO[C@H]1CCC[C@H]1Oc1ccc(C#N)c(Cl)c1 (relative stereo)
Reply: bottom

Query: Pick a category. Item: N#Cc1ccc(OC2CCC2)cc1C(F)(F)F
Reply: top

Query: Pick a category. Item: CC1CCCC(Oc2ccc(C#N)cc2Cl)C1C (single isomer, unassigned) [Example 64]
Reply: bottom

Query: Pick a category. Item: COC1CCC(Oc2ccc(C#N)c(C(F)(F)F)c2)CC1 (centres unmarked)
Reply: middle

====

target-entity: hAR (Homo sapiens)
Construct: made in house; host or cells: baculovirus/Sf9 insect cells
Sequence (P10275 1-920): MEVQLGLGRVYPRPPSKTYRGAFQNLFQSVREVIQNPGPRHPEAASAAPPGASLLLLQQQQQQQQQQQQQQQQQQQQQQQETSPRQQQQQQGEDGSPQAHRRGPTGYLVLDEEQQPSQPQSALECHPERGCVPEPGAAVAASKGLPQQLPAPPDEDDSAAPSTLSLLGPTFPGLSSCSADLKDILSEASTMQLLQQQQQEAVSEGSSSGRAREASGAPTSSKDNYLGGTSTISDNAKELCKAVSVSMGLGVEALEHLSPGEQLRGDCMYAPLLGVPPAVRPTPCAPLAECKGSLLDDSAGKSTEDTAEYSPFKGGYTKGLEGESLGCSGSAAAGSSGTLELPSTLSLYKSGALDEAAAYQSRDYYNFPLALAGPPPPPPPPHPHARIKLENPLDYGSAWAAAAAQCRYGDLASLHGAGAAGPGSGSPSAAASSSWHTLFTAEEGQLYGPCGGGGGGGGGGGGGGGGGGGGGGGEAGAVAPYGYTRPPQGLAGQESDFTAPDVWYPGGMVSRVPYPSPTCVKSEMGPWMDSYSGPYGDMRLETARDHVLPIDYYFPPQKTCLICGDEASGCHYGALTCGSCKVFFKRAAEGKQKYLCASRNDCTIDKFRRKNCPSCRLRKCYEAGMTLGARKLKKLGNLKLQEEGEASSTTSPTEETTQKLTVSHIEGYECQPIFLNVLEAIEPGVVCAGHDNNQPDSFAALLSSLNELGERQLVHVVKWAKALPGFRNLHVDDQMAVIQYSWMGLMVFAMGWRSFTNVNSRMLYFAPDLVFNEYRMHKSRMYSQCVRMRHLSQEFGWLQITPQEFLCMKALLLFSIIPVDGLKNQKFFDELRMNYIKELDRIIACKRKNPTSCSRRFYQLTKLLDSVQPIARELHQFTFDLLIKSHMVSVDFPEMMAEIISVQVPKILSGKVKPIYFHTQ
run-description: Competitive binding analysis on baculovirus/Sf9 generated hAR extracts with 3H-DHT tracer
test-context: AR Binding IC50, hAR extract, 1 nM 3H-DHT, one hour at 4° C.; mean of multiple tests
Category | rule: reported IC50 within range, see category 1: < 50 nM; category 2: ≥ 50 nM and < 90 nM; category 3: ≥ 90 nM

Example entries begin here.
compound | label-class
N#Cc1ccc(O[C@H]2CCCCC2c2ccccc2)cc1Cl (stereo in doubt) | category 2
N#Cc1ccc(O[C@@H]2CCCC[C@H]2C#N)cc1Cl | category 1
N#Cc1ccc(O[C@H]2CCCC[C@@H]2c2ccccc2)cc1C(F)(F)F | category 2

Query: Pick a category. Item: CO[C@H]1CCC[C@@H]1Oc1ccc(C#N)c(Cl)c1 (relative stereo)
Reply: category 3

Query: Pick a category. Item: CO[C@@H]1CCCC[C@H]1Oc1ccc(C#N)c(Cl)c1 (relative stereo)
Reply: category 2

Query: Pick a category. Item: C=C(C)[C@H]1CC[C@H](C)[C@@H](Oc2ccc(C#N)c(Cl)c2)C1
Reply: category 1

Query: Pick a category. Item: N#Cc1ccc(O[C@@H]2CCCC[C@H]2c2ccccc2)cc1Cl
Reply: category 3

Query: Pick a category. Item: CC1CCCC(Oc2ccc(C#N)c(Cl)c2)C1C (stereo not drawn) [Example 20]
Reply: category 3

Query: Pick a category. Item: N#Cc1ccc(OC2CC3CCC2C3)cc1Cl (stereo not drawn)
Reply: category 1

Query: Pick a category. Item: CC1CCCC(C)C1Oc1ccc(C#N)c(C(F)(F)F)c1 (stereo not drawn)
Reply: category 2

Query: Pick a category. Item: N#Cc1ccc(O[C@@H]2CC3CC[C@@H]2C3)cc1Cl (stereo in doubt)
Reply: category 2

Query: Pick a category. Item: C[C@@H]1CCCC[C@@H]1Oc1ccc(C#N)c(C(F)(F)F)c1
Reply: category 1

Query: Pick a category. Item: N#Cc1ccc(O[C@H]2CC3CC[C@@H]2C3)cc1Cl (stereo in doubt)
Reply: category 3

Query: Pick a category. Item: N#Cc1ccc(O[C@@H]2CCCC[C@@H]2c2ccccc2)cc1Cl
Reply: category 3

Query: Pick a category. Item: N#Cc1ccc(O[C@H]2CCCC[C@@H]2c2ccccc2)cc1Cl
Reply: category 3

Query: Pick a category. Item: CCC1CCCCC1Oc1ccc(C#N)c(Cl)c1 (stereo not drawn) [Example 22]
Reply: category 2

Query: Pick a category. Item: N#Cc1ccc(O[C@@H]2CCCCC2C#N)cc1C(F)(F)F (stereo in doubt)
Reply: category 2

Query: Pick a category. Item: N#Cc1ccc(O[C@@H]2CCCC[C@H]2C#N)cc1C(F)(F)F (single isomer, unassigned) [Example 73]
Reply: category 2

Query: Pick a category. Item: CO[C@H]1CCCC[C@H]1Oc1ccc(C#N)c(Cl)c1 (relative stereo)
Reply: category 3

Query: Pick a category. Item: C[C@H]1CCCC[C@@H]1Oc1ccc(C#N)c(Cl)c1 [Example 30]
Reply: category 1

Query: Pick a category. Item: C[C@H]1CCC[C@@H]1Oc1ccc(C#N)c(Cl)c1
Reply: category 1

Query: Pick a category. Item: CC1CCCC(Oc2ccc(C#N)c(Cl)c2)C1C (stereo not drawn) [Example 52]
Reply: category 2

Query: Pick a category. Item: CC1CCCCC1Oc1ccc(C#N)c(C(F)(F)F)c1 (stereo not drawn)
Reply: category 3

Query: Pick a category. Item: N#Cc1ccc(O[C@@H]2CCCC[C@H]2C#N)cc1C(F)(F)F (single isomer, unassigned) [Example 72]
Reply: category 1
